Origin of measurements: the SangsterLogP compilation

- measurement-protocol: method code SF, from Hansch, C. & Leo, A. (1987). Log P database [Dataset]. Pomona College Medicinal Chemistry Project.
- applied-conditions: pH 13.0
Please enter 1.0 where logD is greater than or equal to 2, and 0.0 where it is lower.

Task item: Is logD at least 2? Consider Nc1cn[nH]c1
Reply: 0.0

Task item: Check this compound for logD at or above 2: CNC1(c2ccccc2Cl)CCCCC1=O (stereo not drawn)
Reply: 1.0

Task item: API: above_or_equal(metric=logD, cutoff=2) for item CN(Cc1ccccc1)c1ccccc1
Reply: 1.0

Task item: In plain terms: is recorded logD at least 2 for NN(c1ccccc1)c1ccccc1 ?
Reply: 1.0

Task item: Please tell me: is the compound CS(=O)(=O)Oc1ccccc1Cc1cnc(N)nc1N at or over 2 in terms of logD?
Reply: 0.0

Task item: Please check the record C=CCN(CC=C)CC=C and state if its logD is at or above 2.
Reply: 1.0

Task item: Dear colleague, could you confirm whether Nc1nc(N)c2ccccc2n1 has logD at or above 2?
Reply: 0.0

Task item: Could you please find out whether COc1cc(Cc2cnc(N)nc2N)cc(OC)c1N(C)C has logD that meets 2 or exceeds it?
Reply: 0.0

Task item: For this compound, is measured logD 2 or higher? COc1ccc(N2C(N)=NC(N)=NC2(C)C)cc1
Reply: 0.0

Task item: API: above_or_equal(metric=logD, cutoff=2) for item COC(OC)OC
Reply: 0.0

Task item: Check the entry CC(=O)c1ccc(N2C(N)=NC(N)=NC2(C)C)cc1 : does logD equal or exceed 2?
Reply: 0.0

Task item: Given the entry CN(c1ccccc1)c1ccccc1 , answer whether its logD meets or surpasses 2.
Reply: 1.0

Task item: Is logD for CN(C)CC(O)c1ccccc1 (stereo not drawn) at or above 2?
Reply: 0.0

###

- measurement-protocol: method code SF, from Hansch, C. & Leo, A. (1987). Log P database [Dataset]. Pomona College Medicinal Chemistry Project.
Would you mind telling me the reported logP of each entry?
# respond with the number and nothing more

Task item: If you can, please state the reported logP value of CC(C)(Cc1ccccc1)NC(=O)N(CCCl)N=O .
Reply: 3.73

Task item: Reported logP, compound CC1=Nc2c(I)cc(Cl)cc2S(=O)(=O)N1 : ____
Reply: 1.81

Task item: Find the recorded logP belonging to CCCNCCC and report it.
Reply: 1.73

Task item: Suppose we examine the compound CC(C)(C)c1ccccc1 ; what logP value has been reported?
Reply: 4.11

Task item: Field request: logP | item: Ic1cn[nH]c1
Reply: 1.7

Task item: GET /values?readout=logP&item= O=C(c1ccncc1)c1ccc(O)cc1
Reply: 1.37

Task item: Item under review: Cc1ccccc1OCC(O)CO (stereo not drawn) . Reported logP?
Reply: 1.41

Task item: Item under review: CN(C)c1cccc2ccccc12 . Reported logP?
Reply: 3.46

###

For each of the molecules below, state its logP.
- measurement-protocol: method code SF, from Hansch, C. & Leo, A. (1987). Log P database [Dataset]. Pomona College Medicinal Chemistry Project.

Task item: For the molecule shown here, CNC(=O)CSP(=S)(OC)OC , give the reported logP.
Reply: 0.8

Task item: Quick one: logP for Cc1ccccn1 ?
Reply: 1.11

Task item: What does the record list as logP for O=Cc1cccc(C(F)(F)F)c1 ?
Reply: 2.47

Task item: Quick check: logP of Cc1ccccc1Cl ?
Reply: 3.42

Task item: Could you share which logP value was measured for CN(C)C(=O)Oc1ccccc1 ?
Reply: 1.56

Task item: Could you share which logP value was measured for CC1=Nc2c(Br)cc(Cl)cc2S(=O)(=O)N1 ?
Reply: 1.65

Task item: Please give the measured logP for this molecule: CCc1ccc(OC(C)=O)cc1
Reply: 2.56

Task item: For the molecule shown here, COc1ccccc1C=CC(=O)OCCOc1ccc(C=O)cc1OC , give the reported logP.
Reply: 3.65

###

Exercise: state measured logP for each of the compounds provided.
- measurement-protocol: method code SF, from Hansch, C. & Leo, A. (1987). Log P database [Dataset]. Pomona College Medicinal Chemistry Project.
Respond with the number and no other words.

Task item: Suppose we examine the compound CC(=O)Nc1ccc(N(C)C)cc1 ; what logP value has been reported?
Reply: 1

Task item: Recorded logP of CCCCC1OC(=O)c2cc([N+](=O)[O-])ccc21 (configuration not stated) , please.
Reply: 2.92

Task item: Would you kindly share the measured logP for CCCOc1cccc(C=C(C(=O)OCC)C(=O)OCC)c1 ?
Reply: 4

Task item: Which logP reading was recorded for the compound CCCC1=Nc2cc(Cl)ccc2S(=O)(=O)N1 ?
Reply: 2.04

Task item: Dear colleague, I am looking for the recorded logP of the following compound: O=C(NP(=O)(N1CC1)N1CC1)c1cc(I)ccc1I
Reply: 1.35

Task item: I'd like to know its logP. The compound in question is CN(C(=O)CCBr)c1ccc(S(=O)(=O)N(C)C)cc1
Reply: 1.13

Task item: Name the recorded logP for CCOc1ccccc1NC(C)=O .
Reply: 1.49

Task item: What logP value was documented for this compound, Nc1cccc(OC(=O)CNC(=O)c2ccccc2)c1 ?
Reply: 1.3

Task item: Using the record for Clc1ccc2[nH]c(CCCCCc3nc4cc(Cl)ccc4[nH]3)nc2c1 , report its logP.
Reply: 1.98

Task item: May I ask what logP has been recorded for O=c1[nH]cc(Cl)c(=O)[nH]1 ?
Reply: -0.35

Task item: Please report the recorded logP for NC(=O)NCc1ccccc1 .
Reply: 0.73

Task item: What value of measured logP is listed for CCCCl ?
Reply: 2.04

Task item: Entry under review: COc1ccc2c(c1)N(CCCN(C)C)c1ccccc1S2 . Reported logP?
Reply: 4.46

Task item: Param item = ClCCCCl ; retrieve measured logP.
Reply: 2

Task item: Would you mind telling me what logP value was observed for O=C1CN=C(c2ccc[nH]2)c2cc(Cl)ccc2N1 ?
Reply: 2.59

Task item: Param item = O=c1[nH]c2ccccc2[nH]c1=O ; retrieve measured logP.
Reply: 0.2

Task item: For the compound CO[C@H]1/C=C\O[C@@]2(C)Oc3c(C)c(O)c4c(O)c(c(/C=N/OCCCc5ccccc5)c(O)c4c3C2=O)NC(=O)/C(C)=C\C=C/[C@H](C)[C@H](O)[C@@H](C)[C@@H](O)[C@@H](C)[C@H](OC(C)=O)[C@@H]1C , what logP is on record?
Reply: 4.83

Task item: Please give the measured logP for this compound: Cc1cccc(NC(=O)c2ccccc2)c1
Reply: 2.75

Task item: Recorded logP of CC(=O)C(=Cc1ccc(Br)cc1)C(C)=O , please.
Reply: 2.75

Task item: For the compound shown here, Clc1ccc2[nH]c(CCCc3nc4cc(Cl)ccc4[nH]3)nc2c1 , give the reported logP.
Reply: 1.88

Task item: Which logP value is on record for O=C(O)COc1ccc(S(=O)(=O)F)cc1 ?
Reply: 1.82

Task item: Fill in the blank: the reported logP of O=C(Nc1ccc(Cl)c(Cl)c1)C1CC1 is ____.
Reply: 3.83

Task item: # lookup: logP of CCOC(=O)C(=Cc1cccc(OC)c1)C(C)=O
Reply: 2.34

Task item: Which logP is reported for this compound? Nc1ccccc1I
Reply: 2.32

Task item: Fill blank: measured logP of the compound O=C(CNC(=O)c1ccccc1)Oc1ccc(F)cc1 is ____.
Reply: 2.46

Task item: I have this compound here, CC(=O)Oc1ccccc1C , and I need its recorded logP.
Reply: 1.93

Task item: Give its logP value. Item: CC(=O)NC1CCSC1=O (configuration not stated)
Reply: -0.35

###

- measurement-protocol: method code SF, from Hansch, C. & Leo, A. (1987). Log P database [Dataset]. Pomona College Medicinal Chemistry Project.
measurement-name: logP
Could you keep your reply to the number by itself?

Task item: Please give the measured logP for this molecule: NC(=O)N=[N+]([O-])c1ccccc1
Reply: 0.58

Task item: Bench note: what logP did c1ccc(-n2cnnn2)cc1 show?
Reply: 1.09

Task item: Look up logP for this molecule: CN(C)C(=O)COc1ccccc1
Reply: 0.78

Task item: logP for COc1ccc(C=C(C(C)=O)C(C)=O)c(OC)c1 ?
Reply: 1.88

Task item: I'd like to know its logP. The molecule in question is CCOC(CCC#N)OCC
Reply: 0.75

Task item: Report logP for CN(C)C(=O)N(c1ccccc1)c1ccccc1 please.
Reply: 2.8

Task item: Reported logP for C=C1C(=O)O[C@@H]2/C=C(\C)CC/C=C(\C)CC[C@@H]12 : what is it?
Reply: 2.09

###

Task for the reader: assign each of the following molecules its reported logP.

Task item: Would you kindly share the measured logP for COc1ccnc(C#N)n1 ?
Reply: 0.86

Task item: Name the reported logP value associated with the molecule CCC(C)NC(=O)C(=Cc1ccccc1)NC(C)=O (stereo not drawn)
Reply: 1.76

Task item: Item CCC(C)NC(=O)C(=Cc1ccccc1)SC (stereo not drawn) has what recorded logP?
Reply: 3.53

Task item: I'd like to know its logP. The molecule in question is [O-][n+]1cc(-c2ccccc2)ncc1-c1ccccc1
Reply: 3.27

Task item: Request the reported logP associated with FC(F)(F)CN(CC(F)(F)F)c1ccc(Br)cc1
Reply: 4.7

Task item: Endpoint output: logP of COc1cc(S(C)=O)ccc1-c1cn2cccnc2n1 (stereo not drawn) . Value?
Reply: 0.64

Task item: logP for CC(=O)Nc1cnc2ccccc2n1 ?
Reply: 1.53

Task item: State the recorded logP for this entry: FC(F)(F)CN(CC(F)(F)F)c1ccccc1
Reply: 3.69

Task item: Look at this molecule and give its reported logP. CCCCOc1ccc(O)cc1
Reply: 2.9

Task item: Consider the molecule shown here: COc1cccc(NC(=O)N(CCCl)N=O)c1 What is its recorded logP?
Reply: 2.66

Task item: Which logP is listed for CCC(C)c1cccc(C(C)C)c1O (stereo not drawn) ?
Reply: 3.85

Task item: Please look up its logP: CCSC(=O)Oc1cccc2cccnc12
Reply: 2.74

Task item: What measured logP goes with CCOC(=O)c1n[nH]c2ccc(CC)cc2c1=O ?
Reply: 2.01

Task item: Recorded logP of CCCC(=CC(=O)NC(C)CC)c1ccc(Cl)cc1 (stereo not drawn) , please.
Reply: 4.34

Task item: Give the measured logP of CCC(C)c1cccc(C(C)CC)c1O (stereo not drawn) .
Reply: 4.38

Task item: Please report the recorded logP for CCC(C)NC(=O)C=C(c1ccccc1)c1ccc(Cl)cc1 (stereo not drawn) .
Reply: 4.11

Task item: I have this molecule here, CCC(C)NC(=O)C=C(N)c1ccc(Cl)cc1 (stereo not drawn) , and I need its recorded logP.
Reply: 2.85

Task item: Would you kindly share the measured logP for CC(=O)Nc1cccc2nccnc12 ?
Reply: 1.06

Task item: Bench note: what logP did CCC(C)NC(=O)C(C)=Cc1ccccc1 (stereo not drawn) show?
Reply: 3.08

Task item: Entry under review: CC(=O)Nc1ccc2nccnc2c1 . Reported logP?
Reply: 1

Task item: Which logP value is on record for O=NN(CCCl)C(=O)NC1CCCCCCCCCCC1 ?
Reply: 5.64

Task item: What measured logP goes with C[C@]1(O)CC[C@H]2[C@@H]3CCC4=CC(=O)CC[C@]4(C)[C@@]3(F)[C@@H](O)C[C@@]21C ?
Reply: 2.38

Task item: // logP lookup, key: CCC(C)NC(=O)C(C)=Cc1ccc(Cl)cc1 (stereo not drawn)
Reply: 3.63

Task item: Record request: logP value, item C[C@]12CCC(=O)C=C1CC[C@@H]1[C@@H]2C(=O)C[C@@]2(C)[C@H]1CC[C@]2(O)C(=O)CO
Reply: 1.64

Task item: Look up logP: CC12CC3(C)CC(C)(C1)CC(NC(=O)N(CCCl)N=O)(C2)C3
Reply: 5.75

Task item: // lookup logP for CCC(C)NC(=O)C(=Cc1ccccc1)NC(=O)c1ccccc1 (stereo not drawn)
Reply: 2.61

Task item: If you can, please state the reported logP value of O=NN(CCCl)C(=O)Nc1ccc(Cl)cc1 .
Reply: 3.16

Task item: So what does the record say about logP for O=NN(CCCl)C(=O)Nc1ccccc1 ?
Reply: 2.49
